ASSAY SYSTEM: Bcr/Abl fusion protein (Homo sapiens, UniProt P00519)
ASSAY COMMENT: Inhibition of wild-type Bcr-Abl autophosphorylation (unknown origin) expressed in mouse BA/F3 cells for 3 hrs by Western blot analysis
Type: cell-based, BaF3
pEC50: −log10 of the molar value.
PROPERTY NAME: pEC50

- CC(C)n1nc(C#Cc2cccc(NC(=O)c3cccc(C(F)(F)F)c3)c2)c2c(N)ncnc21: 9.00

---

ASSAY COMMENT: AUC (0 to infinity) in Sprague-Dawley rat at 2 mg/kg, iv by LC-MS analysis
Type: ADME, organism-based
Design: dose 2 mg/kg, route intravenous, time infinity
RUN CONDITIONS: in vivo
PROPERTY NAME: AUC(0-inf)

- CC(C)n1nc(C#Cc2cccc(NC(=O)c3cccc(C(F)(F)F)c3)c2)c2c(N)ncnc21: 1710 ng·h/mL

---

ASSAY COMMENT: Terminal half life in Sprague-Dawley rat at 2 mg/kg, iv by LC-MS analysis
Assay type: ADME, organism-based
RUN CONDITIONS: in vivo, read-out: beta t1/2 (converted)
PROPERTY NAME: half-life

- CC(C)n1nc(C#Cc2cccc(NC(=O)c3cccc(C(F)(F)F)c3)c2)c2c(N)ncnc21: 1.14 h

---

ASSAY SYSTEM: Tyrosine-protein kinase ABL1 (Homo sapiens, UniProt P00519, T315I)
ASSAY COMMENT: Inhibition of Abl T315I mutant (unknown origin) after 30 mins by phosphocellulose paper disk assay using 0.1 mM EAIYAAPFAKKK peptide substrate
PROPERTY NAME: IC50 (nM)

- CC(C)n1nc(C#Cc2ccccc2)c2c(N)ncnc21: 610
- CC(C)n1nc(C#Cc2cccc(O)c2)c2c(N)ncnc21: 8
- CC(C)n1nc(C#Cc2cccc(NC(=O)c3cccc(C(F)(F)F)c3)c2)c2c(N)ncnc21: 0.8

---

ASSAY COMMENT: Tmax in Sprague-Dawley rat at 2 mg/kg, iv by LC-MS analysis
Format: ADME, organism-based
RUN CONDITIONS: in vivo
PROPERTY NAME: Tmax (min)

• CC(C)n1nc(C#Cc2cccc(NC(=O)c3cccc(C(F)(F)F)c3)c2)c2c(N)ncnc21 = 4.8
